SYSTEM UNDER TEST: Cytochrome P450 2C19 (Homo sapiens) (UniProt P33261)
Sequence (P33261 whole entry, looked up): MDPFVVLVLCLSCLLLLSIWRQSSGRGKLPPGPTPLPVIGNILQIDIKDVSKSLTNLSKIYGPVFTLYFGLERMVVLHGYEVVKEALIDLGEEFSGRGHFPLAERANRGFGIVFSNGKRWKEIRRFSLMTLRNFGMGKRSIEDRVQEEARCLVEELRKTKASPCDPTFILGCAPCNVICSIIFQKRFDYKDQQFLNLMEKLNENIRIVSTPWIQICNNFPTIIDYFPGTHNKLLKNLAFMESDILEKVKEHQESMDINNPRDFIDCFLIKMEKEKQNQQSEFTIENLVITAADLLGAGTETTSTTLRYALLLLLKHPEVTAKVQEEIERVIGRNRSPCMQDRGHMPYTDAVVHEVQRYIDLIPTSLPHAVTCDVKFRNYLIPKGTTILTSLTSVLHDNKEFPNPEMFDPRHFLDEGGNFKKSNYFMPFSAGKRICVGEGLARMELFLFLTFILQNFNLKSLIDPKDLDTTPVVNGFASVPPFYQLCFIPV
PROTOCOL: qHTS Assay for Inhibitors and Substrates of Cytochrome P450 2C19 (AID 899); also: nearly all actives have a fitted effect of over 60% in size
RECORDED CONDITIONS: recombinant CYP2C19, luciferin-H EGE luminescence; series mostly up to 57.1 µM
Experimental: NIH Molecular Libraries Screening Centers Network [MLSCN] NIH Chemical Genomics Center [NCGC] The P450 gene superfamily is involved in the metabolism and clearance of xenobiotics. […] The luciferin is then measured by luminescence after the addition of a luciferase detection reagent. […] Inhibitors and some substrates limit the production of luciferin, and decrease measured luminescence. […]
Results filed as inconclusive are left out. Active and inactive are the calls of the source. Calls follow the shape of the dose curve; as a rule, active = well fitted inhibition curve with a large enough effect; inconclusive = small, poorly fitted or top-dose-only effect; inactive = no such curve, though single readings can be large or run the other way.
Pick from active, inactive when you respond.

Status in this test for CC[C@H]1C2=C3C(CC[C@H]4C(OC)OC[C@](C)([C@@H]34)N(C(=O)OC(C)(C)C)C2)C(CO)C1CO (some centres undefined) ?
inactive

Status in this test for COC(=O)[C@@]1(Cc2ccc(F)cc2)[C@H]2c3cc(C(=O)N4CCCC4)n(CCc4ccc(OC)c(Br)c4)c3C[C@H]2CN1C(=O)c1ccccc1 ?
active

Status in this test for CC(C)C[C@@H](CC(=O)N[C@@H](CCCN)CC(=O)N[C@@H]1CCCC[C@H]1C(=O)N[C@H](CC(=O)N[C@@H](CCC(=O)O)CC(=O)O)Cc1c[nH]c2ccccc12)NC(=O)[C@@H]1CNCC[C@H]1N ?
inactive

Status in this test for CC(=O)Oc1ccc(/C=C\C(=O)C[C@@H]2O[C@@H](Oc3cc(OC(C)=O)c4c(c3)O[C@@H](c3ccc(OC(C)=O)cc3)CC4=O)[C@H](OC(C)=O)[C@H](OC(C)=O)[C@@H]2OC(C)=O)cc1 ?
inactive

Status in this test for CC(C)C[C@@H](CC(=O)N[C@@H](CCC(=O)O)CC(=O)O)NC(=O)[C@@H]1CNCC[C@H]1NC(=O)C[C@H](CCCN)NC(=O)C[C@H](Cc1c[nH]c2ccccc12)NC(=O)[C@@H]1CNCC[C@H]1N ?
inactive

Status in this test for N=C1[C@@H](O)[C@]2(I)c3ccccc3N3C(=N)[C@H](O)[C@@H]4c5ccccc5N1[C@@H]4[C@@H]32 ?
active

Status in this test for CCCC[C@@H]1C[C@H]1C(NC(=O)c1cccs1)c1ccc(Cl)cc1 (some centres undefined) ?
active

Status in this test for NCCC[C@@H](CC(=O)N[C@@H]1CCNC[C@H]1C(=O)N[C@H](CC(=O)N[C@@H](CCC(=O)O)CC(=O)O)Cc1c[nH]c2ccccc12)NC(=O)C[C@H](Cc1ccccc1)NC(=O)[C@@H]1CNCC[C@H]1N ?
inactive

Status in this test for NCCC[C@@H](CC(=O)N[C@@H]1CCNC[C@H]1C(=O)N[C@H](CC(=O)N[C@@H](CCC(=O)O)CC(=O)O)Cc1ccccc1)NC(=O)C[C@H](Cc1ccccc1)NC(=O)[C@@H]1CNCC[C@H]1N ?
inactive

Status in this test for CC(C)C[C@@H](CC(=O)N[C@@H](CCCN)CC(=O)N[C@@H]1CCNC[C@H]1C(=O)N[C@H](CC(=O)N[C@@H](CCC(=O)O)CC(=O)O)Cc1ccccc1)NC(=O)[C@@H]1CNCC[C@H]1N ?
inactive

Status in this test for COc1ccc(-c2cc(=O)c3ccc(O)cc3o2)cc1 ?
active

Status in this test for CC(C)C[C@@H](CC(=O)N[C@@H](CCC(=O)O)CC(=O)O)NC(=O)[C@@H]1CNCC[C@H]1NC(=O)C[C@H](CCCN)NC(=O)C[C@H](Cc1c[nH]c2ccccc12)NC(=O)[C@@H]1CCCC[C@H]1N ?
inactive

Status in this test for Cc1ccc(C(=O)[C@@H]2[C@@H]3[C@@H](C(=O)[C@@H]4OC[C@H]3O4)[C@@H]3C=Cc4ccccc4N23)cc1 ?
active

Status in this test for CCc1cccc2c(-c3ccccc3)c3c(nc12)OCC3 ?
active

Status in this test for COC(=O)[C@H]1C[C@@H]1[C@H](NC(=O)c1ccccc1)c1ccccc1 ?
active

Status in this test for CC(C)[C@@H](CC(=O)N[C@@H]1CCCC[C@H]1C(=O)N[C@H](CC(=O)N[C@@H](CCC(=O)O)CC(=O)O)Cc1c[nH]c2ccccc12)NC(=O)C[C@H](Cc1ccccc1)NC(=O)[C@@H]1CNCC[C@H]1N ?
inactive

Status in this test for COC(=O)[C@H](C)[C@H]1C[C@]1(C)[C@H](NC(=O)OCc1ccccc1)c1ccccc1 ?
active

Status in this test for CC(C)C[C@@H](CC(=O)N[C@@H](CCCN)CC(=O)N[C@@H]1CCCC[C@H]1C(=O)N[C@H](CC(=O)N[C@@H](CCC(=O)O)CC(=O)O)CC(C)C)NC(=O)[C@@H]1CCCC[C@H]1N ?
inactive

Status in this test for CC1(C)CCC[C@@]2(C)[C@@H]1CC[C@]1(C)OC(=O)C[C@@H]21 ?
active

Status in this test for CC(C)[C@@H](CC(=O)N[C@@H]1CCCC[C@H]1C(=O)N[C@H](CC(=O)N[C@@H](CCC(=O)O)CC(=O)O)Cc1c[nH]c2ccccc12)NC(=O)C[C@H](CO)NC(=O)[C@@H]1CNCC[C@H]1N ?
inactive

Status in this test for CC(C)C[C@@H](CC(=O)N[C@@H](CCCN)CC(=O)N[C@@H]1CCNC[C@H]1C(=O)N[C@H](CC(=O)N[C@@H](CCC(=O)O)CC(=O)O)Cc1c[nH]c2ccccc12)NC(=O)[C@@H]1CCCC[C@H]1N ?
inactive

Status in this test for CC(C)C[C@@H](CC(=O)N[C@@H](CCC(=O)O)CC(=O)O)NC(=O)[C@@H]1CCCC[C@H]1NC(=O)C[C@@H](NC(=O)C[C@H](CO)NC(=O)[C@@H]1CCCC[C@H]1N)C(C)C ?
inactive

Status in this test for CC(=O)O[C@H]1CC[C@@]2(C)[C@@H](CC[C@@]3(C)[C@H]2C(=O)C=C2[C@H]4C[C@](C)(C(=O)OCCN5CCCCC5)CC[C@]4(C)CC[C@@]23C)C1(C)C ?
inactive

Status in this test for NCCC[C@@H](CC(=O)N[C@@H]1CCNC[C@H]1C(=O)N[C@H](CC(=O)N[C@@H](CCC(=O)O)CC(=O)O)Cc1ccccc1)NC(=O)C[C@H](Cc1ccccc1)NC(=O)[C@@H]1CCCC[C@H]1N ?
inactive
